# ASSAY TARGET: AURKA (Homo sapiens, UniProt O14965)
# Construct: endogenous in cells; host or cells: Jurkat cells
# Sequence (O14965 whole entry): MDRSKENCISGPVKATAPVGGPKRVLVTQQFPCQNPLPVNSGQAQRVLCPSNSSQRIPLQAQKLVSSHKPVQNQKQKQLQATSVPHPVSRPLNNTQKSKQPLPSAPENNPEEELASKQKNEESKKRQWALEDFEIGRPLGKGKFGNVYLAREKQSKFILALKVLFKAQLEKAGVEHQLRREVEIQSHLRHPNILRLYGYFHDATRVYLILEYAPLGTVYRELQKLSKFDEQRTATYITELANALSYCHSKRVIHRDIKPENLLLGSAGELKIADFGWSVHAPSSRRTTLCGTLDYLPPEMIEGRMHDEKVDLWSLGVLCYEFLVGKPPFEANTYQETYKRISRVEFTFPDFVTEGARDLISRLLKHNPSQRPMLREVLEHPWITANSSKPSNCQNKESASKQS
# Format: cell-based
# EXPERIMENTAL CONTEXT: 1 µM compound, Jurkat cells, 24 h, Table 2
ASSAY METRIC: Percentage of AURKA Degradation Induced by 1 µM Compound in Jurkat Cells

Solved entries:
- O=C1CCN(c2cncc(N3CCN(C4CN(c5cccc(Nc6ncc7c(n6)-c6ccc(Cl)cc6C(c6c(F)cccc6F)=NC7)c5)C4)CC3)c2)C(=O)N1: +++ (Degradation > 70%)
- O=C1CCN(c2cncc(N3CCN(C4CN(c5cccc(Nc6ncc7c(n6)-c6ccc(Cl)cc6C(c6c(F)cccc6F)=NC7)c5)C4)CC3)c2C(F)F)C(=O)N1: + (Degradation ≤ 30%)
- O=C1CCN(c2ccc(N3CCC4(CC3)CC(N3CCN(C56CC(Nc7ncc8c(n7)-c7ccc(Cl)cc7C(c7c(F)cccc7F)=NC8)(C5)C6)CC3)CO4)nc2)C(=O)N1 (stereo not drawn): +++ (Degradation > 70%)
- O=C1CCN(c2ccc(N3CCC4(CC3)CC(N3CCN(c5ccc(Nc6ncc7c(n6)-c6ccc(Cl)cc6C(c6c(F)cccc6F)=NC7)cc5)CC3)CO4)nc2)C(=O)N1 (racemic): +++ (Degradation > 70%)
- Cc1c(N2CCC3(CC2)CN(Cc2cccc(Nc4ncc5c(n4)-c4ccc(Cl)cc4C(c4c(F)cccc4F)=NC5)c2)C3)cccc1N1CCC(=O)NC1=O: + (Degradation ≤ 30%)

In the following, a different compound is considered.
The recorded Percentage of AURKA Degradation Induced by 1 µM Compound in Jurkat Cells for `O=C1CCN(c2ccc(N3CCC(N4C5COCC4CN(c4ccc(Nc6ncc7c(n6)-c6ccc(Cl)cc6C(c6c(F)cccc6F)=NC7)cc4)C5)CC3)nc2)C(=O)N1` is + (Degradation ≤ 30%)

###

# ASSAY TARGET: AURKA (Homo sapiens, UniProt O14965)
# Construct: endogenous in cells; host or cells: Jurkat cells
# Type: cell-based
# EXPERIMENTAL CONTEXT: 1 µM compound, Jurkat cells, 24 h, Table 1
ASSAY METRIC: Percentage of AURKA Degradation Induced by 1 µM Compound in Jurkat Cells

Solved entries:
• O=C1CCN(c2ccc(N3CC4(CCC(NC(=O)c5ccc(Nc6ncc7c(n6)-c6ccc(Cl)cc6C(c6c(F)cccc6F)=NC7)cc5)CC4)C3)nc2)C(=O)N1 [Compound A61] = +++ (Degradation > 70%)
• COc1cccc(F)c1C1=NCc2cnc(Nc3ccc(C(=O)NCCN4CCN(c5ccc(N6CCC(=O)NC6=O)cn5)CC45CC5)cc3)nc2-c2ccc(Cl)cc21 [Compound A69] = +++ (Degradation > 70%)
• COc1cc(Nc2ncc3c(n2)-c2ccc(Cl)cc2C(c2c(F)cccc2OC)=NC3)ccc1C(=O)NC1CC2(CCN(c3ccc(N4CCC(=O)NC4=O)cn3)CC2)C1 [Compound A54] = +++ (Degradation > 70%)
• COc1cc(Nc2ncc3c(n2)-c2ccc(Cl)cc2C(c2c(F)cccc2OC)=NC3)ccc1C(=O)NCCN1CCC(c2ccc(N3CCC(=O)NC3=O)cc2)CC1 [Compound A15] = +++ (Degradation > 70%)

The recorded Percentage of AURKA Degradation Induced by 1 µM Compound in Jurkat Cells for O=C1CCN(c2ccc(N3CCC4(CC3)CC(NC(=O)c3ccc(Nc5ncc6c(n5)-c5ccc(Cl)cc5C(c5c(F)cccc5F)=NC6)cc3)C4)cc2)C(=O)N1 [Compound A37] is +++ (Degradation > 70%)

The recorded Percentage of AURKA Degradation Induced by 1 µM Compound in Jurkat Cells for COc1cc(Nc2ncc3c(n2)-c2ccc(Cl)cc2C(c2c(F)cccc2OC)=NC3)ccc1C(=O)N1CCC2(CCN(c3ccc(N4CCC(=O)NC4=O)cc3)CC2)C1 [Compound A36] is + (Degradation ≤ 30%)

The recorded Percentage of AURKA Degradation Induced by 1 µM Compound in Jurkat Cells for O=C1CCN(c2ccc(N3CCC(CNC(=O)c4ccc(Nc5ncc6c(n5)-c5ccc(Cl)cc5C(c5c(F)cccc5F)=NC6)cc4)CC3)cc2)C(=O)N1 [Compound A12] is + (Degradation ≤ 30%)

The recorded Percentage of AURKA Degradation Induced by 1 µM Compound in Jurkat Cells for COc1cc(Nc2ncc3c(n2)-c2ccc(Cl)cc2C(c2c(F)cccc2OC)=NC3)ccc1C(=O)NCCC#Cc1ccc(N2CCC(=O)NC2=O)cc1 [Compound A26] is + (Degradation ≤ 30%)

The recorded Percentage of AURKA Degradation Induced by 1 µM Compound in Jurkat Cells for COc1cc(Nc2ncc3c(n2)-c2ccc(Cl)cc2C(c2c(F)cccc2OC)=NC3)ccc1C(=O)NCCN1CCN(c2ccc(N3CCC(=O)NC3=O)cc2)CC1 [Compound A8] is +++ (Degradation > 70%)

The recorded Percentage of AURKA Degradation Induced by 1 µM Compound in Jurkat Cells for COc1cc(Nc2ncc3c(n2)-c2ccc(Cl)cc2C(c2c(F)cccc2OC)=NC3)ccc1C(=O)NC1CCN(Cc2ccc(N3CCC(=O)NC3=O)cc2)CC1 [Compound A28] is + (Degradation ≤ 30%)

The recorded Percentage of AURKA Degradation Induced by 1 µM Compound in Jurkat Cells for COc1cc(Nc2ncc3c(n2)-c2ccc(Cl)cc2C(c2c(F)cccc2OC)=NC3)ccc1C(=O)N[C@H]1C[C@@H](C#Cc2cccc3c2CN(C2CCC(=O)NC2=O)C3=O)C1 (relative stereo) [Compound A6] is + (Degradation ≤ 30%)

The recorded Percentage of AURKA Degradation Induced by 1 µM Compound in Jurkat Cells for COc1cc(Nc2ncc3c(n2)-c2ccc(Cl)cc2C(c2c(F)cccc2OC)=NC3)ccc1C(=O)NCCN1CCN(c2ccc(N3CCC(=O)NC3=O)cn2)CC1 [Compound A29] is +++ (Degradation > 70%)

###

# ASSAY TARGET: AURKA (Homo sapiens, UniProt O14965)
# Construct: endogenous in cells; host or cells: Jurkat cells
# Format: cell-based
# EXPERIMENTAL CONTEXT: 100 nM compound, Jurkat cells, 24 h, Table 2
ASSAY METRIC: Percentage of AURKA Degradation Induced by 100 nM Compound in Jurkat Cells

• O=C1CCN(c2ccc(N3CC(C(=O)N4CCN(c5ccc(Nc6ncc7c(n6)-c6ccc(Cl)cc6C(c6nccs6)=NC7)cc5)CC4)C3)nc2)C(=O)N1 = +++ (Degradation > 70%)
• O=C1CCN(c2ccc(N3CCC4(CC3)C[C@H](N3CCN(c5ccc(Nc6ncc7c(n6)-c6ccc(Cl)cc6C(c6c(F)cccc6F)=NC7)cc5)CC3)CO4)nc2)C(=O)N1 = +++ (Degradation > 70%)
• O=C1CCN(c2cccc(N3CC(CN4CCOc5ccc(Nc6ncc7c(n6)-c6ccc(Cl)cc6C(c6c(F)cccc6F)=NC7)cc5C4)C3)c2)C(=O)N1 = +++ (Degradation > 70%)

###

Recorded half-life, one value per entry.
# TEST METHOD NOTES: Mouse PK study
# Type: in vivo
# EXPERIMENTAL CONTEXT: mouse, plasma; IV 1 mg/kg, male CD1 mice
Give your result in h as a bare value.

* O=C1CCN(c2ccc(N3CCC4(CC3)CC(N3CCN(C56CC(Nc7ncc8c(n7)-c7ccc(Cl)cc7C(c7c(F)cccc7F)=NC8)(C5)C6)C(=O)C3)CO4)nc2)C(=O)N1 (centres unmarked) | 1.89

In the following, a different compound is considered.
The recorded half-life for `O=C1CCN(c2ccc(N3CCO[C@H](C(=O)N4CCN(c5ccc(Nc6ncc7c(n6)-c6ccc(Cl)cc6C(c6c(F)cccc6F)=NC7)cc5)CC4)C3)nc2)C(=O)N1` is 2.28

###

# ASSAY TARGET: AURKA (Homo sapiens)
# Construct: endogenous in cells; host or cells: Jurkat cells
# Type: cell-based
# EXPERIMENTAL CONTEXT: 100 nM compound, Jurkat cells, 24 h, Table 2
ASSAY METRIC: Percentage of AURKA Degradation Induced by 100 nM Compound in Jurkat Cells

• O=C1CCN(c2ccc(N3CCC(N4CCN(c5ccc(Nc6ncc7c(n6)-c6ccc(Cl)cc6C(c6c(F)cccc6F)=NC7)cn5)CC4)CC3)nc2)C(=O)N1 [Compound A213] = +++ (Degradation > 70%)
• O=C1CCN(c2ccc(N3CC(CN4CCN(C56CC(Nc7ncc8c(n7)-c7ccc(Cl)cc7C(c7c(F)cccc7F)=NC8)(C5)C6)CC4)C3)nc2)C(=O)N1 [Compound A219] = +++ (Degradation > 70%)

###

# ASSAY TARGET: AURKA (Homo sapiens, UniProt O14965)
# Construct: endogenous in cells; host or cells: Jurkat cells
# Format: cell-based
# EXPERIMENTAL CONTEXT: 1 µM compound, Jurkat cells, 24 h, Table 1
ASSAY METRIC: Percentage of AURKA Degradation Induced by 1 µM Compound in Jurkat Cells

• COc1cc(Nc2ncc3c(n2)-c2ccc(Cl)cc2C(c2c(F)cccc2OC)=NC3)ccc1C(=O)N[C@H]1C[C@H](C#Cc2ccc(N3CCC(=O)NC3=O)cc2)C1 [Compound A51] = +++ (Degradation > 70%)
• COc1cc(Nc2ncc3c(n2)-c2ccc(Cl)cc2C(c2c(F)cccc2OC)=NC3)ccc1C(=O)NC1CC2(CCN(c3ccc(N4CCC(=O)NC4=O)cc3)CC2)C1 [Compound A38] = +++ (Degradation > 70%)
